# EXPERIMENT SUMMARY: chemical genetic growth profiling, strain panel (AID 1159580);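 note: tested at 20 µM; growth read once vehicle control cultures reached saturation at 30 °C; 1 = growth at the plate median or of vehicle wells; lower values mean less growth of the strain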
# EXPERIMENTAL CONDITIONS: S. cerevisiae deletion strains, growth OD, locus YDR137W, strain rgp1, stronger effect = lower value
Out of some 5,500 compounds screened, about 2,000 (36%) were called active. Not shown: some 18% with an inconclusive outcome. The list shows a part of the results.
Categorize each record by its normalized growth using zone 1 = under 0.9, zone 2 = from 0.9 up to 1, zone 3 = 1 and over

Query :: Sort into band: "Oc1ccc(/C=C/c2cc(O)cc(O)c2)cc1"
Result :: zone 1

Query :: Which category fits this record: "CN(Cc1cc(Br)cc(Br)c1N)C1CCCCC1"
Result :: zone 3

Query :: Using the reported normalized growth, which band applies to "CCOP(=S)(OCC)Oc1ccc2c(C)c(Cl)c(=O)oc2c1" ?
Result :: zone 2

Query :: Hello team, could you let me know which band the following compound falls into: COc1cc2c(cc1O)CC1c3c(cc(O)c(OC)c3-2)CCN1C (stereo unspecified)
Result :: zone 3

Query :: Using the reported normalized growth, which band applies to Nc1c(Br)cc(Br)cc1CNC1CCC(O)CC1 (stereo unspecified) ?
Result :: zone 2

Query :: Using the reported normalized growth, which band applies to "Nc1nc2ncc(CNc3ccc(C(=O)N[C@@H](CCC(=O)O)C(=O)O)cc3)nc2c(=O)[nH]1" ?
Result :: zone 3

Query :: Into which bin does this compound go? CC(=O)O[C@H]1C[C@@H](OC(C)=O)C(C)(C)C2C[C@@H](OC(C)=O)[C@]3(C)C(CC[C@@]4(C)[C@H](c5ccoc5)C(=O)[C@H]5O[C@]543)[C@]21C (stereo partly specified)
Result :: zone 2

Query :: Please report the category associated with CCCNC(C)C(=O)Nc1ccccc1C (stereo unspecified) , nothing else.
Result :: zone 3

Query :: Which of the defined bands does the recorded normalized growth of "OC/C=C/c1ccc(O)c(O)c1" sit within?
Result :: zone 2

Query :: Hi there! Could you help me figure out the category for c1ccc(-c2ccc(C(c3ccccc3)n3ccnc3)cc2)cc1 (stereo unspecified) please?
Result :: zone 1

Query :: Hello team, could you let me know which band the following compound falls into: "CCCc1cc(OC)c2c(c1)OCO2"
Result :: zone 2

Query :: Lab note: sort "c1cc2c(cc1[C@H]1OC[C@H]3[C@@H]1CO[C@H]3c1ccc3c(c1)OCO3)OCO2" into the matching normalized growth band.
Result :: zone 1

Query :: Into which category would you place Nc1nc2c(c(=O)[nH]1)N(C=O)C(CNc1ccc(C(=O)N[C@@H](CCC(=O)O)C(=O)O)cc1)CN2 (stereo partly specified) ?
Result :: zone 2

* * *

# EXPERIMENT SUMMARY: chemical genetic growth profiling, strain panel (AID 1159580);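 note: tested at 20 µM; growth read once vehicle control cultures reached saturation at 30 °C; 1 = growth at the plate median or of vehicle wells; lower values mean less growth of the strain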
# EXPERIMENTAL CONDITIONS: S. cerevisiae deletion strains, growth OD, locus YAL026C, strain drs2, stronger effect = lower value
The campaign covered roughly 5,500 compounds. About 2,000 (36%) were called active. Roughly 18% stayed inconclusive and do not appear here. The list shows a part of the results.
PROPERTY MEASURED: normalized growth
I only need the number, thanks.

Query :: Please report the measured normalized growth for N[C@@H](CCC(=O)N[C@@H](CCSC(CC(=O)O)C(=O)O)C(=O)NCC(=O)O)C(=O)O (some centres undefined)
Result :: 1

Query :: Please supply the value of reported normalized growth for the item CCOC(=O)CCCCCCCCCCCCC1C=CCC1 (centres undefined)
Result :: 1

Query :: Read the entry "NC(=O)c1cnccn1" and write its reported normalized growth.
Result :: 1.01

Query :: Quote normalized growth reported for "CN(Cc1cc(Br)cc(Br)c1N)C1CCCCC1" please.
Result :: 1.03

Query :: Supply recorded normalized growth for OC1CCCCC1N1CCC(c2ccccc2)CC1 (centres undefined) here.
Result :: 0.994

Query :: # return recorded normalized growth for entry "COC(=O)[C@H]1[C@H]2C[C@@H]3c4[nH]c5cc(OC)ccc5c4CCN3C[C@H]2C[C@@H](OC(=O)c2cc(OC)c(OC)c(OC)c2)[C@@H]1OC"
Result :: 0.974

Query :: Supply measured normalized growth of "O=C(/C=C/c1ccc(O)c(O)c1)O[C@@H]1C[C@](O)(C(=O)O)C[C@@H](O)[C@H]1O" in your reply.
Result :: 0.979

Query :: Look up normalized growth of CN1CCc2cccc3c2C1Cc1ccc(O)c(O)c1-3 (centres undefined) and report it.
Result :: 0.862

Query :: Please report the measured normalized growth for "O=C(O)c1cc(=O)c2c(OCC(O)COc3cccc4oc(C(=O)O)cc(=O)c34)cccc2o1"
Result :: 1.01

Query :: Supply reported normalized growth belonging to this molecule: "CC[C@]12CCCN3CCc4c(n(c5ccccc45)C(=O)C1)[C@@H]32"
Result :: 1.04

Query :: Tell us which normalized growth value is on record for "NCCCCN=C(N)N"
Result :: 1.03

Query :: For the molecule "Cc1ccc(C(C)C)cc2c(C)ccc1-2" , report normalized growth.
Result :: 1.02

Query :: Indicate the recorded normalized growth value for this molecule: "CC1=C(/C=C/C(C)=C/C=C/C(C)=C/C(=O)O)C(C)(C)CCC1"
Result :: 0.958

Query :: Retrieve normalized growth measured for "Oc1ccc(/C=C/c2cc(O)cc(O)c2)cc1" and print it.
Result :: 0.978

Query :: Tell me normalized growth reported for "CCOC(=O)C1=C[C@]2(CC)CCCN3CCc4c(n1c1ccccc41)[C@@H]32"
Result :: 1.02

Query :: Respond only with normalized growth recorded for "CCOP(=S)(OCC)Oc1ccc2c(C)c(Cl)c(=O)oc2c1"
Result :: 0.96

Query :: Please give measured normalized growth of the following entry: "CS(=O)(=O)OCCCCOS(C)(=O)=O"
Result :: 1.02

Query :: Give normalized growth for COc1cc(C)c2c(c1C=O)Oc1c(c(C)c(O)c3c1C(O)OC3=O)OC2=O (centres undefined)
Result :: 1.02

Query :: Please report normalized growth for the following molecule: CC1(C)C2CC(=O)O[C@@]3(C)C4=CC(=O)O[C@@H](c5ccoc5)[C@]4(C)CCC3[C@@]2(C)C=C[C@H]1O (some centres undefined)
Result :: 0.98

Query :: Fill in reported normalized growth for this entry: "Nc1ccc(S(=O)(=O)Nc2nccs2)cc1"
Result :: 1.01

Query :: Fill in reported normalized growth for this entry: "Nc1nccs1"
Result :: 0.993

Query :: Identify measured normalized growth associated with "COP(=S)(OC)Oc1ccc(SC)c(C)c1"
Result :: 0.984

Query :: Supply measured normalized growth of "O=C(O)c1cc(=O)c(O)c2c(O)c(O)c(O)cc2c1" in your reply.
Result :: 0.216

Query :: Return normalized growth for the following molecule: "O=C1N=C(O)CN1/N=C\c1ccc(-c2ccc([N+](=O)[O-])cc2)o1"
Result :: 0.981

Query :: Report normalized growth for Nc1c(Br)cc(Br)cc1CNC1CCC(O)CC1 (centres undefined)
Result :: 0.968

Query :: Return the recorded normalized growth value; entry: CC12CCC3C(CC=C4CC(O)CCC43C)C1CCC2=O (centres undefined)
Result :: 0.582

Query :: Determine from records and report normalized growth for "O=C(O)c1cc(O)c(O)c(O)c1"
Result :: 1.03

Query :: Quick one: give measured normalized growth for CC(=O)O[C@H]1C[C@@H](OC(C)=O)C(C)(C)C2C[C@@H](OC(C)=O)[C@]3(C)C(CC[C@@]4(C)[C@H](c5ccoc5)C(=O)[C@H]5O[C@]543)[C@]21C (some centres undefined)
Result :: 0.991

Query :: Return normalized growth (reported value) for this molecule: CCOC(=O)C(C)(N)Cc1ccc(O)c(O)c1 (centres undefined)
Result :: 0.958

Query :: State its normalized growth for this molecule: "CC12CCC(CC1)C(C)(C)O2"
Result :: 0.973

Query :: Name the recorded normalized growth of the molecule listed here: CCC(COC(=O)c1cc(OC)c(OC)c(OC)c1)(c1ccccc1)N(C)C (centres undefined)
Result :: 0.994

Query :: Item "COc1ccc(/C=C/C(=O)c2cc(O)ccc2O)cc1" : provide normalized growth
Result :: 0.224

Query :: Read off the recorded normalized growth for "O=C1OCCN1/N=C\c1ccc([N+](=O)[O-])o1"
Result :: 0.889

Query :: Please give the documented normalized growth of "CCOC(=O)c1ccc(N)cc1"
Result :: 1

Query :: Complete the entry with normalized growth for "COc1cc(/C=C/C(=O)O)cc(OC)c1OC"
Result :: 0.999

Query :: Identify measured normalized growth associated with "c1ccc2[nH]c(-c3cscn3)nc2c1"
Result :: 0.956

Query :: State, in one line, measured normalized growth of CC(=O)O[C@H]1CC[C@@]2(C)C(=CCC3C2CC[C@@]2(C)C3CC[C@@H]2C(C)CCCC(C)C)C1 (some centres undefined)
Result :: 1

Query :: // Input: "COc1cc(/C=C/C(=O)O)ccc1O" . Output its normalized growth only.
Result :: 1.01

Query :: Dear colleague, please send me the reported normalized growth for "COc1ccc(/C=C/C(=O)c2ccc(O)cc2O)cc1" when you can.
Result :: 0.39

Query :: Dear colleague, please send me the reported normalized growth for "CC[C@]12CCCN3CCc4c(n(c5ccccc45)[C@](O)(C(=O)OC)C1)[C@@H]32" when you can.
Result :: 0.983

Query :: Return value of normalized growth for input "C[C@H](COc1ccccc1)N[C@H](C)[C@H](O)c1ccc(O)cc1" , no commentary.
Result :: 0.974

Query :: Determine from records and report normalized growth for "CCOC(N)=O"
Result :: 1

Query :: Could you please provide reported normalized growth for "O=C(O)P(=O)(O)O" ? Thanks!
Result :: 0.979

Query :: Please report the measured normalized growth for O=C(NC(Cc1cc(=O)[nH]c2ccccc12)C(=O)O)c1ccc(Cl)cc1 (centres undefined)
Result :: 1

Query :: Read the entry "C[C@](N)(Cc1ccc(O)c(O)c1)C(=O)O" and write its reported normalized growth.
Result :: 0.968

Query :: Name the recorded normalized growth of the item "C[C@](N)(Cc1ccc(O)cc1)C(=O)O" in your answer.
Result :: 0.999

Query :: Identify measured normalized growth associated with "O=c1cccc2n1C[C@H]1CNCC2C1"
Result :: 1.01

Query :: # return recorded normalized growth for entry "COc1ccc2c(c1O)-c1c(OC)c(OC)cc3c1[C@H](C2)N(C)CC3"
Result :: 0.985

Query :: Report normalized growth for "CCCN(CCC)CCc1cccc2c1CC(=O)N2"
Result :: 0.979
